FYI, the data here is from ChEMBL document CHEMBL3751794.

// reported logD per item
# TEST_NAME: Lipophilicity, log D of compound at pH 7.4
# Format: physicochemical
# SETUP_CONDITIONS: buffer
PROPERTY_MEASURED: logD

INSERT INTO results (smiles_code, measured_result) VALUES
  ('Cc1cc(S(=O)(=O)N2[C@H](CO)CC[C@@H]2c2ccc(F)cc2)cc(Cl)c1F', 3.6),
  ('Cc1cc(C(=O)N2[C@H](CO)CC[C@@H]2c2ccc(F)cc2)cc(C)c1F', 3.1),
  ('Cc1cc(S(=O)(=O)N2CC(F)(F)C[C@@H]2c2ccc(F)cc2)cc(C)c1F', 4.2),
  ('Cc1cc(S(=O)(=O)N2CCC[C@@H]2c2ccc(F)cc2)cc(C)c1F', 4.4),
  ('O=S(=O)(c1ccccc1)N1[C@H](CO)CC[C@@H]1c1ccc(F)cc1', 2.2);

---

# TESTED_ON: Transient receptor potential cation channel subfamily A member 1 (Homo sapiens)
# Sequence (O75762 whole entry): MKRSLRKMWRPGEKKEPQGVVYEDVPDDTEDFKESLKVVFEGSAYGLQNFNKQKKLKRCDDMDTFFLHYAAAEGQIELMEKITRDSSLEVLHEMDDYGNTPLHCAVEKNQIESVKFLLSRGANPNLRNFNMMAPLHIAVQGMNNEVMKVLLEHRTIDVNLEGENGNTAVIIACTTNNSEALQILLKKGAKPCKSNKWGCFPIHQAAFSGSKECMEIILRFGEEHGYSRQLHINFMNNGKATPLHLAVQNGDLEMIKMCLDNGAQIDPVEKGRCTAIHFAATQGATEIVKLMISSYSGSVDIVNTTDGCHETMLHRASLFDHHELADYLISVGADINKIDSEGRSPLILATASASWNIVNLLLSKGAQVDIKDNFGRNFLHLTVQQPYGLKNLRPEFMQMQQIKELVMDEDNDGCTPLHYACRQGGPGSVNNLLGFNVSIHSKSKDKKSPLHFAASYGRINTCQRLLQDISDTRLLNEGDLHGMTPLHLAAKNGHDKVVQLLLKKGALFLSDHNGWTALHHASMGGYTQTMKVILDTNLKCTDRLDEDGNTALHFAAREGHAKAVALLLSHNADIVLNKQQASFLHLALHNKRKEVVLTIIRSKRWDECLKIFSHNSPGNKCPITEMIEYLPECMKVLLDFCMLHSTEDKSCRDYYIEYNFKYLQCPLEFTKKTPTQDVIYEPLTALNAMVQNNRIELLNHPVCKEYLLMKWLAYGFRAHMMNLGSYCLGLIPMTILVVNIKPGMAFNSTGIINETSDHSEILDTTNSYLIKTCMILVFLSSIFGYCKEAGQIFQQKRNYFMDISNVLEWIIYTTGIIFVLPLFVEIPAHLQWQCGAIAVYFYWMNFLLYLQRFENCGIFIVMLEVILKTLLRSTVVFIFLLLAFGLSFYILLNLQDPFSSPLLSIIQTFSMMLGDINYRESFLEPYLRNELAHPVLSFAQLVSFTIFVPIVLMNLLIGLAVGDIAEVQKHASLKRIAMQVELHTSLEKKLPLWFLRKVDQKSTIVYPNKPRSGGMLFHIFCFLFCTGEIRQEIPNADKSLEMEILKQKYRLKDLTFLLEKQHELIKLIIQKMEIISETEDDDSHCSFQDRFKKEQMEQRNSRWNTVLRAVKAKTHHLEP
pIC50: −log10 of the molar value.
PROPERTY_MEASURED: pIC50

INSERT INTO results (smiles_code, measured_result) VALUES
  ('O=S(=O)(c1ccc(F)cn1)N1[C@H](CO)CC[C@@H]1c1ccc(F)cc1', '< 4.70'),
  ('CNC[C@@H]1CC[C@H](c2ccc(F)cc2)N1S(=O)(=O)c1cc(C)c(F)c(C)c1', '< 4.70'),
  ('O=S(=O)(c1ccccc1)N1[C@H](CO)CC[C@@H]1c1ccc(F)cc1', '< 4.72');
